pIC50: −log10 of the molar value.
// cross-study collection: pIC50 for UniProtKB Q2NNR5
Sequence (Q2NNR5 whole entry): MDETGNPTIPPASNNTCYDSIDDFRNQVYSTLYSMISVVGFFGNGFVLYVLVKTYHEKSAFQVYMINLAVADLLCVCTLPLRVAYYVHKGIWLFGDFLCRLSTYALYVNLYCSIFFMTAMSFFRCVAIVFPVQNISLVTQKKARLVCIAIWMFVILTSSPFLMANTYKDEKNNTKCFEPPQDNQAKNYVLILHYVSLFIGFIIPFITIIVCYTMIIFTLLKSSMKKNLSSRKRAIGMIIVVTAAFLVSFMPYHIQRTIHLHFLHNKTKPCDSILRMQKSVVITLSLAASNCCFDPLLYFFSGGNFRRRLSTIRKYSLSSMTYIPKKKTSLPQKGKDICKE
measure.name: pIC50

See these solved cases before continuing.
INSERT INTO assay_data (smiles_repr, measurement_target, measure_name, experimental_result) VALUES
  ('COc1cc(C(=O)NS(=O)(=O)c2ccccc2C)ccc1Cc1c[nH]c2ccc(NC(=O)OC3CCCC3)cc12', 'UniProtKB Q2NNR5', 'pIC50', 9.00),
  ('CC(C)(O)c1ccccc1CC[C@@H](SCC1(CC(=O)O)CC1)c1cccc(/C=C/c2nccs2)c1', 'UniProtKB Q2NNR5', 'pIC50', 6.42);

1: CC(C)(O)c1ccccc1CC[C@@H](SCC1(CC(=O)O)CC1)c1cccc(/C=C/c2nc(CSc3ccccc3)cs2)c1
2: C[C@H](CCC[C@H](SCCC(C)(C)O)c1cccc(/C=C/c2ccc3ccc(Cl)cc3n2)c1)C(=O)O
## Task Between 1 and 2 , which one shows the larger pIC50 value? # reply format: chosen label
## Result 2
(2: 8.70, 1: 7.37)

###

// cross-study collection: IC50 for UniProtKB Q2NNR5
measure.name: IC50 (nM)

See these solved cases before continuing.
INSERT INTO assay_data (compound, measurement_target, measure_name, experimental_result) VALUES
  ('CCN(CC)C(=O)n1cc(Cc2ccc(C(=O)NS(=O)(=O)c3ccccc3C)cc2OC)c2cc(NC(=O)OC3CCCC3)ccc21', 'UniProtKB Q2NNR5', 'IC50', 0.5),
  ('COc1cc(C(=O)NS(=O)(=O)c2ccccc2C)ccc1Cc1cn(C=O)c2ccc(NC(=O)OC3CCCC3)cc12', 'UniProtKB Q2NNR5', 'IC50', 1),
  ('CC(C)(O)c1ccccc1CC[C@@H](SCC1(CC(=O)O)CC1)c1cccc(/C=C/c2nc3cc(F)c(F)cc3s2)c1', 'UniProtKB Q2NNR5', 'IC50', 0.8),
  ('COc1cc(C(=O)NS(=O)(=O)c2ccccc2C)ccc1Cc1cn(C(=O)N(C)C)c2ccc(NC(=O)OC3CCCC3)cc12', 'UniProtKB Q2NNR5', 'IC50', 0.4),
  ('COc1cc(C(=O)NS(=O)(=O)c2ccccc2C)ccc1Cc1cn(C(=O)N(C)c2ccccc2)c2ccc(NC(=O)OC3CCCC3)cc12', 'UniProtKB Q2NNR5', 'IC50', 0.4);

a: CC(C)(O)c1ccccc1CC[C@@H](SCC1(CC(=O)O)CC1)c1cccc(/C=C/c2nc3ccccc3s2)c1
b: Cn1nccc1-c1ccc(Sc2ccc(C3(C(N)=O)CCOCC3)cc2)cc1
## Task Between a and b , which one shows the larger IC50 value? # reply format: chosen label
## Result b
(b: 229 nM, a: 16.8 nM)

P: COc1cc(C(=O)NS(=O)(=O)c2ccccc2C)ccc1Cc1cn(C(=O)NCCCc2ccccc2)c2ccc(NC(=O)OC3CCCC3)cc12
Q: CC(C)(O)c1ccccc1CC[C@@H](SCC1(CC(=O)O)CC1)c1cccc(/C=C/c2nc3c(s2)CCCC3)c1
R: CC(C)(O)c1ccccc1CC[C@@H](SCC1(CC(=O)O)CC1)c1cccc(/C=C/c2nc3cc(F)ccc3s2)c1
## Task Highest IC50 first, then in falling order down to the smallest. Rank the items, then write their labels in that order.
## Result R, Q, P

I: CN(C)C(=O)CCSC(SCCC(=O)[O-])c1cccc(/C=C/c2ccc3ccc(Cl)cc3n2)c1.[Na+] (configuration not stated)
II: CC(CC[C@H](SCCCC(C)(C)O)c1cccc(/C=C/c2ccc3ccc(Cl)cc3n2)c1)CC(=O)O (some centres not stated)
## Task Between I and II , which one shows the larger IC50 value? # reply format: chosen label
## Result I
